tested on: DMS-114; assay: NCI tumour cell line growth inhibition, 48 h
Calls of active or inactive are those of the source. Cut-off read from the data, not from the text of the source: active = GI50 up to about 1.1 µM and inactive = higher. Peptide text beside a SMILES is read from it.
endpoint: GI50

- molecule: "C[N+](C)(C)CC(=O)N/N=c1\\cc(C(=O)Nc2ccc(N=O)cc2C#N)oc2cc(O)ccc12"
  value.reported: "> 100 µM (inactive)"
- molecule: "Cc1ccc(S(=O)(=O)C2=c3nc4ccccc4cc3=C3C(=O)c4ccccc4C(=O)C32)cc1 (stereo unspecified)"
  value.reported: "> 100 µM (inactive)"
- molecule: "CC(=O)n1ccc2c(Cl)ncnc21"
  value.reported: "> 100 µM (inactive)"

Inquiry: Which GI50 is reported with DMS-114 for this entry: CC1CC2CC(=O)CC3(C1)C2CCCN3CCCO (stereo unspecified) ?
Reply text: > 100 µM (inactive)

Inquiry: Which GI50 is reported with DMS-114 for this entry: NC(=O)C12CC3CC(CC(F)(C3)C1)C2 ?
Reply text: > 100 µM (inactive)

Inquiry: Which GI50 is reported with DMS-114 for this entry: CCC(=O)CCC1=Nc2nnc(CCCCc3nnc4n3C(=O)C(CCC(=O)CC)=N4)n2C1=O ?
Reply text: > 100 µM (inactive)

Inquiry: Which GI50 is reported with DMS-114 for this entry: CC(C)CC(NC(=O)C(CC(C)C)NC(=O)C(Cc1c[nH]cn1)NC(=O)C(C)NC(=O)C(NC(=O)C(C)NC(=O)C(Cc1c[nH]c2ccccc12)NC(=O)C(CCC(=O)O)NC(=O)C(N)Cc1ccccc1)C(C)C)C(N)=O (stereo unspecified) (H-FEWAVAHLL-NH2; configuration not given here) ?
Reply text: > 100 µM (inactive)

Inquiry: Which GI50 is reported with DMS-114 for this entry: O=C1C(Cl)N(c2ccccc2Cl)C1c1c[nH]c2ccccc12 (stereo unspecified) ?
Reply text: > 100 µM (inactive)

Inquiry: Which GI50 is reported with DMS-114 for this entry: O=C(NC1CCCCC1)c1c(O)[nH]c(=S)[nH]c1=O ?
Reply text: 88.5 µM (inactive)

Inquiry: Which GI50 is reported with DMS-114 for this entry: Cc1ccccc1C(=O)Oc1ccc(OCc2ccccc2)cc1 ?
Reply text: 28.9 µM (inactive)

Inquiry: Which GI50 is reported with DMS-114 for this entry: C#CC[N+](CCO)(CCO)CCCCCCCCCCCCCCCCCC ?
Reply text: 10.3 µM (inactive)

* * *

tested on: NCI-H522; assay: NCI tumour cell line growth inhibition, 48 h
Active and inactive are the calls of the source. Rule as the data show it: active = GI50 up to about 1.1 µM and inactive = higher.
# maps each entry to its GI50

Solved entries:
- compound: "COc1cc2c(cc1OC)CN1CCCc3cc(OC)c(OC)cc3C1C2 (stereo not drawn)"
  GI50: "29.4 µM (inactive)"
- compound: "N/C(=N\\O)N/N=C/c1ccc(C(F)(F)F)cc1"
  GI50: "10.3 µM (inactive)"

Shifting focus to the compound that follows.
Inquiry: Tell me the measured GI50 of COc1ccc2c3c1OC1c4[nH]c5ccccc5c4CC4(O)C(C2)N(C)CCC314 (stereo not drawn) , please.
Reply text: 25.1 µM (inactive)

* * *

system: ACHN; experiment: NCI tumour cell line growth inhibition, 48 h
Active and inactive are the calls of the source. Rule as the data show it: active = GI50 up to about 1.1 µM and inactive = higher.
Just give me one of these, please: active, inactive

- compound: "CC#COS(=O)(=O)c1ccc(C)cc1"
  label.value: "inactive"
- compound: "Cc1nc(NC(C)(CO)CO)nc(N/N=C/c2ccc(Cl)cc2)c1C(=O)Nc1ccc(Cl)cc1"
  label.value: "inactive"
- compound: "CC1=NNC(=O)C1C1CC(c2c[nH]c3ccccc23)=NN(C(N)=O)C1=O (stereo unspecified)"
  label.value: "inactive"
- compound: "COc1cccc2[nH]c(-c3ccccn3)nc12"
  label.value: "inactive"
- compound: "Cc1nc2c(sc(=S)n2-c2ccccc2)c2nc3ccccc3n12"
  label.value: "inactive"
- compound: "NC1=C(Br)C(=O)c2ncccc2C1=O"
  label.value: "active"
- compound: "CCOC(=O)C(=O)Nc1c(C)cccc1C(C)(C)C"
  label.value: "inactive"
- compound: "O=C(/C=C\\c1ccccc1)Oc1ccc(/C=C2\\CCC/C(=C\\c3ccc(OC(=O)/C=C\\c4ccccc4)cc3)C2=O)cc1"
  label.value: "inactive"

Inquiry: Name the outcome recorded for CCOC(=O)c1cccc(=O)c(C(=O)OCC)c1 in the assay.
Reply text: inactive

Inquiry: Name the outcome recorded for COc1ccc(OC)c(N(CN2C(=O)CCC2C(=O)O)C(C)=O)c1 (stereo unspecified) in the assay.
Reply text: inactive

Inquiry: Name the outcome recorded for Cc1ccc(NC(=O)C(=O)C(C(=O)c2ccc3ccccc3c2)C2OC(=O)c3ccccc32)c(C)c1 (stereo unspecified) in the assay.
Reply text: inactive

Inquiry: Name the outcome recorded for CNC(=O)C1OC(n2cnc3c(NCc4cccc(I)c4)nc(Cl)nc32)C(O)C1O (stereo unspecified) in the assay.
Reply text: inactive

Inquiry: Name the outcome recorded for O=C(OCc1ccccc1)N(CCCCN(CCCNCc1ccccc1)C(=O)OCc1ccccc1)CCCNCc1ccccc1 in the assay.
Reply text: inactive

Inquiry: Name the outcome recorded for O=C1Nc2ccc(Br)cc2/C1=N/N1C(=O)C(=O)N(C2CCCCC2)C1=S in the assay.
Reply text: inactive

Inquiry: Name the outcome recorded for O=C(/C=C/c1c(O)ccc2ccccc12)c1ccc([N+](=O)[O-])cc1 in the assay.
Reply text: inactive

Inquiry: Name the outcome recorded for O=C1C2=C(c3ccccc31)C(c1ccccc1Cl)N1C(=O)CSC1=N2 (stereo unspecified) in the assay.
Reply text: inactive

Inquiry: Name the outcome recorded for Cc1nnc2n(c1=O)CCN2C in the assay.
Reply text: inactive

Inquiry: Name the outcome recorded for CC(C)(C)OC(=O)NC(Cc1c[nH]cn1)C(=O)N1CCCC1C(N)=O (stereo unspecified) in the assay.
Reply text: inactive

Inquiry: Name the outcome recorded for COC(=O)C1=C(C)NC(C)=C(C(=O)OC)C1c1nc2sccn2c1[N+](=O)[O-] in the assay.
Reply text: inactive

Inquiry: Name the outcome recorded for CCCCC(=O)OC[n+]1ccc(-c2c(COC(=O)NC(C)C)c(COC(=O)NC(C)C)c3n2CCC3)cc1 in the assay.
Reply text: inactive
